This collection of values is drawn from patent US20130251728A1.

- Experimental system: T1, mfGCGR-hFc (cynomolgus monkey (Macaca fascicularis))
- T1 construct: also called mfGCGR-N-terminal hFc
- T1 sequence (chain, as listed by the source limits assumed): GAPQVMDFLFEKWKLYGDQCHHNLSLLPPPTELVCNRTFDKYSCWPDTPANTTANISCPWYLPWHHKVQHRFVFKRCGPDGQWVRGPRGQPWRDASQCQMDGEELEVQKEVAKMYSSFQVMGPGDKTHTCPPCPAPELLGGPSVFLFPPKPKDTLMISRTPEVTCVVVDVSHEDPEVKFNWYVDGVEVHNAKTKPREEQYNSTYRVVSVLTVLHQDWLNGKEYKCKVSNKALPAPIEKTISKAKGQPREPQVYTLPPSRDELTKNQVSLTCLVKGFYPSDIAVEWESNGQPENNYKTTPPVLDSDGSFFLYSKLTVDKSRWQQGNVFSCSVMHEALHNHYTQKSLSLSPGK
- Experimental details: SPR Biacore T100, 25C, mAb captured, antigen flowed
Record form. Attribute: T½. Fill in for each entry.
Please state the figure in h; there is no need to write the unit.

Item: H4H1328P (antibody, V domains shown, Fully human anti-GCGR antibody; the controls are called isotype-matched hIgG4) VH: EVQLVESGGALVQPGGSLRLSCTASGFTFSNYDMHWVRQTTGKGLEWISAIDTAGDTYYPGSVKGRFTVSRENAKNSFYLQMNSLRAGDTAVYYCAREGKYYDILTGDYHYYGMDVWGQGTTVTVS VL: DIQMTQSPSSLSASVGDRVTITCRASQGIRNDLGWYQQKPGKAPKRLIYATSSLQSGVPSRFSGSGSGTEFTLTISSLQPEDFATYYCLQHNSYPLTFGGGTKLEIK | T½: 2.28

Item: H4H1331P (antibody, V domains shown, Fully human anti-GCGR antibody; the controls are called isotype-matched hIgG4) VH: QVQLVESGGGVVQPGRSLRLSCAASGFTFSNFGMHWVRQAPGKGLEWVAVIWFDEIDKYYADSVKGRFTISRDNSKNTLYPQMNSLRAEDTAVYYCAREDYDILTGYYYAMDVWGQGTTVTVS VL: DIQMTQSPSSLSASVGDRVTITCRASQGIKNDLGWYQQKPGKAPKRLIYAASRLQSGVPSRFSGSGSGTEFTLTISSLQPEDFGTYYCLQHNSHPTFGQGTKVEIK | T½: 23.7

Item: H4H1321P (antibody, V domains shown, Fully human anti-GCGR antibody; the controls are called isotype-matched hIgG4) VH: QVQLVESGGGVVQPGRSLRLSCAASGFTFSSYDMHWVRQAPGKGLEWVAVISSDGRDKYYVDSVKGRFTISRDNSKNTLYLQMNSLRAEDTAVYYCAKEMVYYDILTGYHNYYGMDVWGQGTTVTVS VL: DIQMTQSPSSLSASVGDRVTITCRASQGINNYLAWFQQKPGKAPKSLIHTASSLQSGVPSKFSGSGSGTDFTLTISSLQPEDFATYYCQQYNTYPLTFGGGTKVEIK | T½: 4.6
